system_name: IRAK4 (Homo sapiens)
Sequence (Q9NWZ3 whole entry): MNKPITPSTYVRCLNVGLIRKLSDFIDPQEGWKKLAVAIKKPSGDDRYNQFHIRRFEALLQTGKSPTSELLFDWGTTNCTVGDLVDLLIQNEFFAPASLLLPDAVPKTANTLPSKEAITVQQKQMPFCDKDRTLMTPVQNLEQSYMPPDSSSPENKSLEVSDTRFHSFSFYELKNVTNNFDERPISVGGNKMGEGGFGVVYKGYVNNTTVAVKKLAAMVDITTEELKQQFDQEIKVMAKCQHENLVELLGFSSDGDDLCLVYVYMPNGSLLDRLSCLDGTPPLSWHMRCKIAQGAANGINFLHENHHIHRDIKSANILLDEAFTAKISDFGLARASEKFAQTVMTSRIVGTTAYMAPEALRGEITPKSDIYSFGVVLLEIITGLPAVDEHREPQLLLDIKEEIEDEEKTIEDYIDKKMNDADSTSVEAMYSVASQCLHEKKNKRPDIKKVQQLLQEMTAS
protocol: IRAK4 Inhibition Assay
Format: biochemical
applied_conditions: ATP 500 μM; FL-IPTSPITTTYFFFKKK peptide […]; IRAK4 0.6 nM; 60 min room temperature; Caliper LABCHIP 3000
readout_kind: IC50 (nM)

// worked examples, IC50 included
For the compound CC[C@H]1[C@@H](COc2cccc3cc(C(N)=O)c4ncnn4c23)NC(=O)C1(F)F [Example 39] , what IC50 is on record?
15.9

For the compound CC[C@@H]1[C@H](F)C(=O)N[C@@H]1COc1cccc2cc(C(N)=O)c3nnnn3c12 [Example 45] , what IC50 is on record?
70

I. CC[C@@H]1[C@H](F)C(=O)N[C@@H]1COc1cccc2cc(C(N)=O)c3nc(C)nn3c12 [Example 40]
II. CC[C@H]1[C@@H](COc2nccc3cc(C(N)=O)c4ncnn4c23)NC(=O)C1(F)F [Example 48]
III. CC[C@H]1[C@@H](COc2nccc3cc(C(N)=O)c4nccn4c23)NC(=O)C1(F)F [Example 20]
Please produce an ascending ranking of these compounds based on IC50. Please, when replying, give the labels in the order that was requested.
III, II, I
